molecular target: ELIC WT (Dickeya chrysanthemi, UniProt P0C7B7); construct: expressed in transfected cells; host or cells: X. laevis oocytes (cRNA injection, pTLN vector); assay: cell-based; assay type: cell-based, Erwinia chrysanthemi; conditions: WT; ACh 10.0 mM; agonist cysteamine
Test Readout: EC50

Ask | Given the compound "NCCS" , write its reported EC50.
Reply | 2250 µM

###

target: ELIC D113A (Dickeya chrysanthemi, UniProt P0C7B7, D113A/INS163G); construct: expressed in transfected cells; host or cells: X. laevis oocytes; assay: Two-electrode voltage clamp, ELIC D113A in oocytes; assay type: cell-based, Erwinia chrysanthemi; conditions: Ca^2+ 25 mM, agonist cysteamine
Test Readout: EC50 (mM)
Value expressed in mM; do not type the unit.

Ask | Given the compound "NCCS" , write its reported EC50.
Reply | 6.37

###

target: ELIC E150A (Dickeya chrysanthemi, UniProt P0C7B7, E150A/INS163G); construct: expressed in transfected cells; host or cells: X. laevis oocytes; assay: Two-electrode voltage clamp, ELIC E150A in oocytes; format: cell-based, Erwinia chrysanthemi; conditions: Ca^2+ 0 mM, agonist cysteamine
Test Readout: pEC50
Just the number, please; pEC50 means minus log10 of the concentration in mol/L.

Ask | Given the molecule "NCCS" , write its reported pEC50.
Reply | 2.85

###

biological target: ELIC R91A (Dickeya chrysanthemi, UniProt P0C7B7, INS163G/R91A); construct: expressed in transfected cells; host or cells: X. laevis oocytes; assay: Two-electrode voltage clamp, ELIC R91A in oocytes; assay type: cell-based, Erwinia chrysanthemi; conditions: R91A; Ca^2+ 5 mM; agonist cysteamine
Test Readout: pEC50
Just the number, please; pEC50 means minus log10 of the concentration in mol/L.

Ask | Given the compound "NCCS" , write its reported pEC50.
Reply | 3.04

###

target: ELIC R91A (Dickeya chrysanthemi, UniProt P0C7B7, INS163G/R91A); construct: expressed in transfected cells; host or cells: X. laevis oocytes; assay: Two-electrode voltage clamp, ELIC R91A in oocytes; format: cell-based, Erwinia chrysanthemi; details: R91A; TMA 10 mM; agonist cysteamine
Test Readout: pEC50
Just the number, please; pEC50 means minus log10 of the concentration in mol/L.

Ask | Given the compound NCCS [cysteamine] , write its reported pEC50.
Reply | 3.64

###

Molecular target: ELIC WT (Dickeya chrysanthemi, UniProt P0C7B7)
Construct: expressed in transfected cells; host or cells: X. laevis oocytes (cRNA injection, pTLN vector)
Assay: cell-based
Assay type: cell-based, Erwinia chrysanthemi
Details: WT/1Ca^2+; ACh 1 mM; agonist cysteamine
Method: Constructs containing the gene of either the WT or mutant channels preceded by the signal sequence of the chicken α7nAchR were cloned into the pTLN vector for expression in X. laevis oocytes. […] Currents were recorded in bath solutions containing 10 mM HEPES (pH 7), 130 mM NaCl, and the indicated concentrations of cysteamine and divalent cations. […]
Test Readout: pEC50
Just the number, please; pEC50 means minus log10 of the concentration in mol/L.

Ask | Given the compound "NCCS" , write its reported pEC50.
Reply | 2.57

###

target: ELIC D113N (Dickeya chrysanthemi, UniProt P0C7B7, D113N/INS163G); construct: expressed in transfected cells; host or cells: X. laevis oocytes; experiment: Two-electrode voltage clamp, ELIC D113N in oocytes; assay type: cell-based, Erwinia chrysanthemi; conditions: Ca^2+ 10 mM, agonist cysteamine
Test Readout: EC50 (mM)
Value expressed in mM; do not type the unit.

Ask | Give the observed EC50 of "NCCS" for ELIC D113N (Dickeya chrysanthemi, UniProt P0C7B7, D113N/INS163G).
Reply | 9.78

###

target: ELIC WT (Dickeya chrysanthemi, UniProt P0C7B7); construct: expressed in transfected cells; host or cells: X. laevis oocytes (cRNA injection, pTLN vector); experiment: cell-based; type: cell-based, Erwinia chrysanthemi; details: WT/BAPTA; Ca^2+ 0.5 mM; agonist cysteamine
Test Readout: pEC50
Just the number, please; pEC50 means minus log10 of the concentration in mol/L.

Ask | Given the molecule "NCCS" , write its reported pEC50.
Reply | 2.97

###

target: ELIC H168A (Dickeya chrysanthemi, UniProt P0C7B7, H168A/INS163G); construct: expressed in transfected cells; host or cells: X. laevis oocytes; experiment: Two-electrode voltage clamp, ELIC H168A in oocytes; type: cell-based, Erwinia chrysanthemi; details: Zn^2+ 0 mM, agonist propylamine
Test Readout: EC50
Form field: result (number plus unit)

Ask | Given the compound "CCCN" , write its reported EC50.
Reply | 670 µM

###

biological target: ELIC H168A (Dickeya chrysanthemi, UniProt P0C7B7, H168A/INS163G); construct: expressed in transfected cells; host or cells: X. laevis oocytes; test: Two-electrode voltage clamp, ELIC H168A in oocytes; type: cell-based, Erwinia chrysanthemi; details: Zn^2+ 0.01 mM, agonist propylamine
Test Readout: pEC50
Just the number, please; pEC50 means minus log10 of the concentration in mol/L.

Ask | Given the molecule CCCN [propylamine] , write its reported pEC50.
Reply | 2.93

###

target: ELIC D158A (Dickeya chrysanthemi, UniProt P0C7B7, D158A/INS163G); construct: expressed in transfected cells; host or cells: X. laevis oocytes; experiment: Two-electrode voltage clamp, ELIC D158A in oocytes; assay type: cell-based, Erwinia chrysanthemi; conditions: Ca^2+ 20 mM, agonist cysteamine
Test Readout: EC50
Form field: result (number plus unit)

Ask | Given the molecule "NCCS" , write its reported EC50.
Reply | 9.38 mM

###

Molecular target: ELIC WT (Dickeya chrysanthemi, UniProt P0C7B7, INS163G)
Construct: expressed in transfected cells; host or cells: X. laevis oocytes (cRNA injection, pTLN vector)
Assay: cell-based
Format: cell-based, Erwinia chrysanthemi
Settings: WT/BAPTA; Schild analysis; read-out: Ki app
Description: Constructs containing the gene of either the WT or mutant channels preceded by the signal sequence of the chicken α7nAchR were cloned into the pTLN vector for expression in X. laevis oocytes. […] Currents were recorded in bath solutions containing 10 mM HEPES (pH 7), 130 mM NaCl, and the indicated concentrations of cysteamine and divalent cations. […]
Test Readout: Ki

Ask | Given the compound "[Ca+2]" , write its reported Ki.
Reply | 200 µM

###

target: ELIC R91A (Dickeya chrysanthemi, UniProt P0C7B7, INS163G/R91A); construct: expressed in transfected cells; host or cells: X. laevis oocytes; assay: Two-electrode voltage clamp, ELIC R91A in oocytes; format: cell-based, Erwinia chrysanthemi; conditions: R91A; ACh 1 mM; agonist cysteamine
Test Readout: EC50 (µM)
Value expressed in µM; do not type the unit.

Ask | Given the compound NCCS [cysteamine] , write its reported EC50.
Reply | 400

###

biological target: ELIC WT (Dickeya chrysanthemi); construct: expressed in transfected cells; host or cells: X. laevis oocytes (cRNA injection, pTLN vector); test: cell-based; assay type: cell-based, Erwinia chrysanthemi; details: WT; ACh 5.0 mM; agonist cysteamine
Test Readout: EC50
Form field: result (number plus unit)

Ask | Given the compound NCCS [cysteamine] , write its reported EC50.
Reply | 1490 µM

###

molecular target: ELIC D158A (Dickeya chrysanthemi, UniProt P0C7B7, D158A/INS163G); construct: expressed in transfected cells; host or cells: X. laevis oocytes; experiment: Two-electrode voltage clamp, ELIC D158A in oocytes; assay type: cell-based, Erwinia chrysanthemi; conditions: Ca^2+ 10 mM, agonist cysteamine
Test Readout: pEC50
Just the number, please; pEC50 means minus log10 of the concentration in mol/L.

Ask | Given the molecule NCCS [cysteamine] , write its reported pEC50.
Reply | 2.27

###

target: ELIC D113A (Dickeya chrysanthemi, UniProt P0C7B7, D113A/INS163G); construct: expressed in transfected cells; host or cells: X. laevis oocytes; assay: Two-electrode voltage clamp, ELIC D113A in oocytes; assay type: cell-based, Erwinia chrysanthemi; details: Ca^2+ 0 mM, agonist cysteamine
Test Readout: EC50 (µM)
Value expressed in µM; do not type the unit.

Ask | Given the molecule "NCCS" , write its reported EC50.
Reply | 950

###

target: ELIC E150Q (Dickeya chrysanthemi, UniProt P0C7B7, E150Q/INS163G); construct: expressed in transfected cells; host or cells: X. laevis oocytes; test: Two-electrode voltage clamp, ELIC E150Q in oocytes; format: cell-based, Erwinia chrysanthemi; details: Ca^2+ 5 mM, agonist cysteamine
Test Readout: pEC50
Just the number, please; pEC50 means minus log10 of the concentration in mol/L.

Ask | Given the compound "NCCS" , write its reported pEC50.
Reply | 1.84

###

Target: ELIC D86A (Dickeya chrysanthemi, UniProt P0C7B7, D86A/INS163G)
Construct: expressed in transfected cells; host or cells: X. laevis oocytes
Assay: Two-electrode voltage clamp, ELIC D86A in oocytes
Type: cell-based, Erwinia chrysanthemi
Settings: Ca^2+ 1 mM, agonist cysteamine
Method: Constructs containing the gene of either the WT or mutant channels preceded by the signal sequence of the chicken α7nAchR were cloned into the pTLN vector for expression in X. laevis oocytes. […] Currents were recorded in bath solutions containing 10 mM HEPES (pH 7), 130 mM NaCl, and the indicated concentrations of cysteamine and divalent cations. […]
Test Readout: EC50
Form field: result (number plus unit)

Ask | Given the compound NCCS [cysteamine] , write its reported EC50.
Reply | 2300 µM
